In this section, each of the binders is paired with its reported Kd.
Biological target: T1, Human Tau 2N4R, wild type, recombinant full length (human, UniProt P10636 2-758)
T1 construct: Full length 2N4R isoform; monomer in SPR and ELISA; heparin-induced aggregates or seeds in the functional assays; also called Tau441; Tau-441
T1 sequence (P10636 other isoform, or with tags, fused parts or gaps limits assumed): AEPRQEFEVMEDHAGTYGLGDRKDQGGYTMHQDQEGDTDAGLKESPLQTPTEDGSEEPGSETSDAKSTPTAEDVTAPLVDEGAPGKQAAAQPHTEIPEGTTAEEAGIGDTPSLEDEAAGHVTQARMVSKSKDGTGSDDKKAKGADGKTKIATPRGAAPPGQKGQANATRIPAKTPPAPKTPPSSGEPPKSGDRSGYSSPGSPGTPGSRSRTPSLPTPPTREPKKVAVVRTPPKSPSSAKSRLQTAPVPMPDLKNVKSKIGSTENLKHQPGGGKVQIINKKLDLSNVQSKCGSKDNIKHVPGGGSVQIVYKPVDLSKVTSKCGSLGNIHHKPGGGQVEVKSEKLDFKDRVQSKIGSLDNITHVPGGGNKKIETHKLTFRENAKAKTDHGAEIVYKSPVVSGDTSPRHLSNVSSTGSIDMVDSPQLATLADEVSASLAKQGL
Assay: SPR BIAcore, mAb captured by anti-human IgG, Tau flowed, 1:1 Langmuir
Dear colleague, please return just the value in nM, with no unit written.

These solved cases illustrate the format of a correct answer.
7G6-HCzu5-LCzu6 (antibody, human IgG1, kappa, V domains shown, humanized, human IgG1 kappa) VH: QVQLVQSGAEVKKPGASVKVSCKASGYTFTTYWITWVRQAPGQGLEWMGDIYPGSSISNYNEKFKSRVTMTVDTSTSTAYMELSSLRSEDTAVYYCAREDGYDAWFAYWGQGTLVTVSS VL: DVVMTQSPLSLPVTLGQPASISCRSSQSILHSNGNTYLEWYQQRPGQSPRLLISKVSNRFSGVPDRFSGSGSGTDFTLKISRVEAEDVGVYYCFQGSHVPFTFGQGTKLEIKR ... 0.0961
7G6-HCzu3-LCzu6 (antibody, human IgG1, kappa, V domains shown, humanized, human IgG1 kappa) VH: QVQLVQSGAEVKKPGASVKVSCKASGYTFTTYWITWVRQAPGQGLEWMGDIYPGSSICNYNEKFKSRVTMTVDTSTSTAYMELSSLRSEDTAVYYCAREDGYDAWFAYWGQGTLVTVSS VL: DVVMTQSPLSLPVTLGQPASISCRSSQSILHSNGNTYLEWYQQRPGQSPRLLISKVSNRFSGVPDRFSGSGSGTDFTLKISRVEAEDVGVYYCFQGSHVPFTFGQGTKLEIKR ... 0.12
7G6-HCzu5-LCzu10 (antibody, human IgG1, kappa, V domains shown, humanized, human IgG1 kappa) VH: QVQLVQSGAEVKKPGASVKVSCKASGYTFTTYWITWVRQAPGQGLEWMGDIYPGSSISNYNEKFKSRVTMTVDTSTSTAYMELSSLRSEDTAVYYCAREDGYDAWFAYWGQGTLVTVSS VL: DVVMTQSPLSLPVTLGQPASISCRSSQSIVHSNGNTYLEWFQQRPGQSPRRLIYKVSNRFSGVPDRFSGSGSGTDFTLKISRVEAEDVGVYYCFQGSHVPFTFGQGTKLEIKR ... 0.162
7G6-HCzu5-LCzu2 (antibody, human IgG1, kappa, V domains shown, humanized, human IgG1 kappa) VH: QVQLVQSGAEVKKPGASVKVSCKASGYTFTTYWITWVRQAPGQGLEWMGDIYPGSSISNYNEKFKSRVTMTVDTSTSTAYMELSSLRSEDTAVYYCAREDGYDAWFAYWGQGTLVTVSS VL: DVVMTQSPLSLPVTLGQPASISCRSSQSILHSNGNTYLEWYQQRPGQSPRLLICKVSNRFSGVPDRFSGSGSGTDFTLKISRVEAEDVGVYYCFQGSHVPFTFGQGTKLEIKR ... 0.127
7G6-HCzu7-LCzu6 (antibody, human IgG1, kappa, V domains shown, humanized, human IgG1 kappa) VH: QVQLVQSGAEVKKPGASVKVSCKASGYTFTTYWITWVRQAPGQGLEWMGDIYPGSSISNYAQKFQGRVTMTVDTSTSTVYMELSSLRSEDTAVYYCAREDGYDAWFAYWGQGTLVTVSS VL: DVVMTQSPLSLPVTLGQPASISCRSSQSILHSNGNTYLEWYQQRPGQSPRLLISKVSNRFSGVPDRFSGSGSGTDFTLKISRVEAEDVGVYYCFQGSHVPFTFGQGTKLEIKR ... 0.109

Could you tell me which Kd is on file for 7G6-HCzu6-LCzu6 (antibody, human IgG1, kappa, V domains shown, humanized, human IgG1 kappa) VH: QVQLVQSGAEVKKPGASVKVSCKASGYTFTTYWITWVRQAPGQGLEWMGDIYPGSSISNYNEKFKSRVTMTVDTSTSTVYMELSSLRSEDTAVYYCAREDGYDAWFAYWGQGTLVTVSS VL: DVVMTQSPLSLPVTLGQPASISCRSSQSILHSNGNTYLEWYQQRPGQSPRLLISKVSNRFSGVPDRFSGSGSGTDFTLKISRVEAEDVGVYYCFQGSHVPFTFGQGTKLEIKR ? 0.0961

Could you tell me which Kd is on file for 7G6-HCzu2-LCzu2 (antibody, human IgG1, kappa, V domains shown, humanized, human IgG1 kappa) VH: QVQLVQSGAEVKKPGASVKVSCKASGYTFTTYWITWVRQAPGQGLEWMGDIYPGSSICNYNEKFKSRVTMTVDTSTSTVYMELSSLRSEDTAVYYCAREDGYDAWFAYWGQGTLVTVSS VL: DVVMTQSPLSLPVTLGQPASISCRSSQSILHSNGNTYLEWYQQRPGQSPRLLICKVSNRFSGVPDRFSGSGSGTDFTLKISRVEAEDVGVYYCFQGSHVPFTFGQGTKLEIKR ? 0.101

Could you tell me which Kd is on file for 7G6-HCzu3-LCzu2 (antibody, human IgG1, kappa, V domains shown, humanized, human IgG1 kappa) VH: QVQLVQSGAEVKKPGASVKVSCKASGYTFTTYWITWVRQAPGQGLEWMGDIYPGSSICNYNEKFKSRVTMTVDTSTSTAYMELSSLRSEDTAVYYCAREDGYDAWFAYWGQGTLVTVSS VL: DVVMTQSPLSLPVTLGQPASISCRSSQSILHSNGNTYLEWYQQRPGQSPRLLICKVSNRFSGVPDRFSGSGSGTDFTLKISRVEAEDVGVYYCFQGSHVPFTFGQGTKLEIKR ? 0.121

Could you tell me which Kd is on file for 7G6-HCzu1-LCzu1 (antibody, human IgG1, kappa, V domains shown, humanized, human IgG1 kappa) VH: QVQLVQSGAEVKKPGASVKVSCKASGYTFTTYWITWVRQAPGQGLEWMGDIYPGSSICNYNEKFKSRVTMTRDTSTSTVYMELSSLRSEDTAVYYCAREDGYDAWFAYWGQGTLVTVSS VL: DVVMTQSPLSLPVTLGQPASISCRSSQSILHSNGNTYLEWFQQRPGQSPRRLIYKVSNRFSGVPDRFSGSGSGTDFTLKISRVEAEDVGVYYCFQGSHVPFTFGQGTKLEIKR ? 0.202

Could you tell me which Kd is on file for 7G6-HCzu2-LCzu1 (antibody, human IgG1, kappa, V domains shown, humanized, human IgG1 kappa) VH: QVQLVQSGAEVKKPGASVKVSCKASGYTFTTYWITWVRQAPGQGLEWMGDIYPGSSICNYNEKFKSRVTMTVDTSTSTVYMELSSLRSEDTAVYYCAREDGYDAWFAYWGQGTLVTVSS VL: DVVMTQSPLSLPVTLGQPASISCRSSQSILHSNGNTYLEWFQQRPGQSPRRLIYKVSNRFSGVPDRFSGSGSGTDFTLKISRVEAEDVGVYYCFQGSHVPFTFGQGTKLEIKR ? 0.226

Where do the numbers come from? From patent US20190112365A1.
